Before we begin, note that these Ki values for UniProt:P00915 originate from several publications.
Write the value in µM as a bare number.

Ki for NS(=O)(=O)c1cc(C(=O)NC(Cc2ccc(O)c(O)c2)C(=O)O)ccc1Cl (centres undefined) is 0.1

Ki for NS(=O)(=O)c1cc(S(N)(=O)=O)c(NC(=O)c2cccc(C(=O)O)n2)c(Cl)c1NC(=O)c1cccc(C(=O)O)n1 is 0.45

Ki for CCOC(=O)/C(O)=C/C(=O)/C=C/c1ccc(NC(=O)c2ccccc2)cc1 is 7.33

Ki for NS(=O)(=O)c1nnc(NC(=O)CCNC(=O)CN(CCN(CC(=O)O)CC(=O)NCCC(=O)Nc2nnc(S(N)(=O)=O)s2)CC(=O)O)s1 is 0.125

Ki for CN1CCN(CC/N=C(\S)Nc2ccc(S(=O)(=O)NCc3ccc(S(N)(=O)=O)cc3)cc2)CC1 is 0.246

Ki for C[C@H](CCC(=O)/N=c1\sc(S(N)(=O)=O)nn1C)[C@H]1CC[C@H]2[C@@H]3CC[C@@H]4C[C@H](O)CC[C@]4(C)[C@H]3C[C@H](O)[C@]12C is 0.24

----------
Before we begin, note that these Ki values for Carbonic anhydrase 1 (Homo sapiens, UniProt P00915) originate from several publications.

input_smiles=O=c1ccc2ccc(OCc3cn(-c4ccccc4)nn3)cc2o1 experimental_system="Carbonic anhydrase 1 (Homo sapiens, UniProt P00915)" reported_property=Ki measurement="> 10 µM"

The compound CCn1cc(S(N)(=O)=O)c2cc(NC(=O)c3cc(-c4ccccc4)nc4ccc(OC)cc34)ccc21 , when measured on Carbonic anhydrase 1 (Homo sapiens, UniProt P00915), yielded Ki of > 100 µM

The compound CCn1cc(S(N)(=O)=O)c2cc(NC(=O)c3cc(-c4ccccc4OC)nc4ccc(OC)cc34)ccc21 , when measured on Carbonic anhydrase 1 (Homo sapiens, UniProt P00915), yielded Ki of > 100 µM

The compound COC(=O)C1=Cc2cc(Cl)ccc2OC(=O)C1 , when measured on Carbonic anhydrase 1 (Homo sapiens, UniProt P00915), yielded Ki of > 100 µM

The compound CNC(=O)CN1C(=O)c2ccccc2S1(=O)=O , when measured on Carbonic anhydrase 1 (Homo sapiens, UniProt P00915), yielded Ki of > 50 µM

----------
Before we begin, note that these Ki values for Carbonic anhydrase 1 (Homo sapiens) originate from several publications.
Write the value in µM as a bare number.

The cases that follow already have their Ki on record.
molecule=NS(=O)(=O)OCC1c2ccccc2-c2ccccc21 measurement=38
molecule="CC(=O)N1N=C(c2cccc(OS(N)(=O)=O)c2)CC1c1ccccc1Cl (stereo unspecified)" measurement=0.94
molecule=CC(C)c1cc(-c2ccccc2)cc(-c2ccccc2)[n+]1Cc1ccc(S(N)(=O)=O)cc1 measurement=112
molecule=Nc1nc(-c2ccc(NC(=O)CCNC(=O)c3cccc(S(N)(=O)=O)c3)cc2)cn2c(=O)n(-c3ccccc3)nc12 measurement=7.28

The molecule NS(=O)(=O)c1ccc(/N=C2\NC(=O)/C(=C3/C(=O)Nc4ccccc43)S2)cc1 , when measured on Carbonic anhydrase 1 (Homo sapiens), yielded Ki of 0.631

The molecule Nc1c(F)cc(S(N)(=O)=O)cc1Br , when measured on Carbonic anhydrase 1 (Homo sapiens), yielded Ki of 3.9

The molecule NS(=O)(=O)c1ccc(C(=O)NCC(=O)NCC(=O)O)cc1 , when measured on Carbonic anhydrase 1 (Homo sapiens), yielded Ki of 0.35

The molecule NS(=O)(=O)c1ccc(-c2cnc(C(=O)N3CCNCC3)o2)cc1 , when measured on Carbonic anhydrase 1 (Homo sapiens), yielded Ki of 0.109
